System: 616215-338-R-J1-PDC spheroids with HUVEC/MSC, viability;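 note: spheroids exposed to agents for seven days before the viability read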
Experiment: Anticancer human tumor 616215-338-R-J1-PDC patient-derived colon adenocarcinoma cell line growth inhibition [PI3K]
Conditions: second compound 0.316 µM; first compound 0.1 µM; active compounds read low

compound	units	viability, T/C
CC(C)n1nc(-c2ccc3oc(N)nc3c2)c2c(N)ncnc21 + CC(Nc1ccc2c(c1)OCCn1cc(N3C(=O)OCC3C(F)F)nc1-2)C(N)=O	%	76.2
CCCS(=O)(=O)Nc1ccc(F)c(C(=O)c2c[nH]c3ncc(-c4ccc(Cl)cc4)cc23)c1F + COc1c(OCCCN2CCOCC2)ccc2c3n(c(=NC(=O)c4cnc(N)nc4)nc12)CCN3	%	35.7
CCN1CCN(Cc2ccc(Nc3ncc(F)c(-c4cc(F)c5nc(C)n(C(C)C)c5c4)n3)nc2)CC1 + COc1c(OCCCN2CCOCC2)ccc2c3n(c(=NC(=O)c4cnc(N)nc4)nc12)CCN3	%	40.7
